Assay: solvent given as SMILES
Conditions: in C1CCOC1
Threshold rule: emission maximum greater than or equal to 600 nm is condition met; below that, condition not met.

Query string: hey, is emission maximum for this one >= 600 nm? `CCc1c(C)c2n(c1C)[B-](F)(F)[N+]1=C(c3ccc[nH]3)c3ccccc3C1=C2`
Result string: condition met

Query string: And then `c1cc2ccc1-c1ccc(cc1)-c1sc(c3c1OCCO3)-c1ccc(cc1)-c1ccc(cc1)-c1sc(c3c1OCCO3)-c1ccc(cc1)-c1ccc(cc1)-c1sc-2c2c1OCCO2` , what is it?
Result string: condition not met

Query string: And then `N#CC(C#N)=C(/C=C/c1cn(-c2ccccc2)nc1-c1ccccc1)c1ccccc1` , what is it?
Result string: condition not met

Query string: And then `CCCCCCCCCn1c(-c2cc(-c3nc4ccc(C)cc4n3CCCCCCCCC)cc(-c3nc4ccc(C)cc4n3CCCCCCCCC)c2)nc2ccc(C)cc21` , what is it?
Result string: condition not met

###

Assay: solvent given as SMILES
Details: in C1COCCO1
value-kind: emission maximum (nm)
Kindly answer with a numeric value in nm, unit omitted.

Query string: Endpoint output: emission maximum of `CN(C)c1ccc2cc(C(/C=C/c3cn(C)c4ccccc34)=C(C#N)C#N)c(=O)oc2c1` . Value?
Result string: 568

Query string: And then `CCn1c(=O)nc2n(C)c3cc(C)ccc3nc-2c1=O` , what is it?
Result string: 527

Query string: And then `Cc1cc(=O)oc2c1cc(Br)c1occ(C)c12` , what is it?
Result string: 407

Query string: And then COc1ccc(C2CC(c3ccc(O)cc3)=NN2c2ccc(S(N)(=O)=O)cc2)cc1 (configuration not stated) , what is it?
Result string: 418

Query string: And then `COc1ccc(/C=C/C2=NC(=C\c3ccncc3)/C(=O)N2C)cc1` , what is it?
Result string: 564

Query string: And then `COC(=O)c1ccc(/C=C2\C=C(c3ccc(C#N)cc3)N(CC(C)C)C2=O)cc1` , what is it?
Result string: 589

Query string: And then `CC(=O)Nc1ccc(C2=C/C(=C\c3ccc([N+](=O)[O-])cc3)C(=O)O2)cc1` , what is it?
Result string: 550

###

Assay: solvent given as SMILES
Details: in ClCCl
value-kind: emission maximum

Query string: Endpoint output: emission maximum of `C[Si]1(C)C(c2ccccc2)=Cc2ccccc21` . Value?
Result string: 390 nm

Query string: And then `O=C(O)CC[N+]1=c2cc3c(cc2CCC1)=Cc1c(c2cc4c5c(c2oc1=O)CCCN5CCC4)O3` , what is it?
Result string: 675 nm

Query string: And then `CC(C)(C)c1ccc2c(c1)sc1[n+]2[B-](F)(F)n2c(c3cccc4c(Br)ccc2c43)=N1` , what is it?
Result string: 552 nm

Query string: And then `Clc1ccccc1N1c2sc3ccccc3c2Sc2c1sc1ccccc21` , what is it?
Result string: 541 nm

Query string: And then `Cc1cc(-n2c3ccccc3c3cc(C#N)ccc32)ccc1-c1ccc(S(=O)(=O)c2ccccc2)cc1C` , what is it?
Result string: 369.19 nm

###

Test: solvent given as SMILES
Conditions: in ClC(Cl)Cl
value-kind: emission maximum (nm)
Kindly answer with a numeric value in nm, unit omitted.

Query string: Endpoint output: emission maximum of `CCCCc1cc(-c2cccc(COC)c2)oc1-c1cccc(-c2cc(CCCC)c(-c3cccc(-c4oc(-c5cccc(-c6oc(-c7cccc(COC)c7)cc6CCCC)c5)cc4CCCC)c3)o2)c1` . Value?
Result string: 373

Query string: And then `Cc1ccc(C#Cc2ccc(C#Cc3ccc(C#Cc4ccccc4C#N)cc3C#N)cc2C#N)cc1` , what is it?
Result string: 403

Query string: And then `c1cc2cc(c1)c1cccc(c1)c1cccc(c1)c1cccc(c1)c1cccc(c1)c1cccc2c1` , what is it?
Result string: 337

Query string: And then Cc1c2oc3c(C)c(N)cc(C(=O)NC4OC(=O)C(C(C)C)N(C)C(=O)CN(C)C(=O)C5CCCN5C(=O)C(C(C)C)NC4=O)c3nc-2c(C(=O)NC2OC(=O)C(C(C)C)N(C)C(=O)CN(C)C(=O)C3CCCN3C(=O)C(C(C)C)NC2=O)c(N)c1=O (centres undefined) , what is it?
Result string: 620.11

###

Assay: solvent given as SMILES
Conditions: in ClCCl
Output YES for records whose emission maximum is lower than 500 nm, NO for records at or above 500 nm.

Query string: For `CN(C)c1ccc2cc(C(/C=C/c3cn(C)c4ccccc34)=C(C#N)C#N)c(=O)oc2c1` , is the recorded emission maximum below the cut-off of 500 nm?
Result string: NO

Query string: And then `O=C1c2ccccc2-c2nc3ccccc3n21` , what is it?
Result string: NO

Query string: And then `c1ccc(-c2c3ccccc3c(-c3cncnc3)c3ccccc23)cc1` , what is it?
Result string: YES

Query string: And then `FC(F)(F)c1cc2n(n1)[B-]1(c3ccccc3-c3ccccc31)[n+]1ccc3ccccc3c1-2` , what is it?
Result string: NO

Query string: And then `O=c1cc(-c2ccccc2)oc(-c2nc3ccccn3c2NC2CCCCC2)c1` , what is it?
Result string: YES

Query string: And then `CC(C)(C)c1ccc(N(c2ccc(C(C)(C)C)cc2)c2ccc3c(N(c4ccc(C(C)(C)C)cc4)c4ccc(C(C)(C)C)cc4)cc4c5cc(N(c6ccc(C(C)(C)C)cc6)c6ccc(C(C)(C)C)cc6)ccc5c(N(c5ccc(C(C)(C)C)cc5)c5ccc(C(C)(C)C)cc5)cc4c3c2)cc1` , what is it?
Result string: YES

Query string: And then `CCC1=C(C)C2=C(c3c4ccccc4cc4ccccc34)c3c(C)c(CC)c(C)n3[B-](F)(F)[N+]2=C1C` , what is it?
Result string: NO

Query string: And then `CCN(CC)c1ccc(/C=C/C2=[O+][B-](F)(F)Oc3c2c(=O)oc2cc(N(CC)CC)ccc32)cc1` , what is it?
Result string: NO

Query string: And then `FC(F)(F)c1ccc(B2c3ccccc3Nc3ccccc32)c(C(F)(F)F)c1` , what is it?
Result string: YES

Query string: And then `O=c1c2ccccc2nc2ccccn12` , what is it?
Result string: YES

Query string: And then `COc1c2ccccc2c(OC)c2c(C#Cc3ccccc3)c3cc4sccc4cc3c(C#Cc3ccccc3)c12` , what is it?
Result string: NO

Query string: And then `Cc1cccc2cc3c(=O)n(C)c(=O)n(C)c3nc12` , what is it?
Result string: YES

###

Assay: solvent given as SMILES
Conditions: in O
Give measured emission maximum for each item. Keep answers brief.
Kindly answer with a numeric value in nm, unit omitted.

Query string: Endpoint output: emission maximum of `COCCOCCOCCOc1ccc(OCCOCCOCCOC)c(C=O)c1` . Value?
Result string: 485

Query string: And then `Fc1cc(F)c2cc3cccc[n+]3cc2c1` , what is it?
Result string: 420

Query string: And then `COc1cccc(OC)c1-c1c2ccc(=[N+]3CCNCC3)cc-2oc2cc(N3CCNCC3)ccc12` , what is it?
Result string: 568

###

Test: solvent given as SMILES
Details: in CC#N
Output met for records whose emission maximum is lower than 400 nm, not met for records at or above 400 nm.

Query string: For CCCCCCCCCCCCC(CCCCCCCCCC)Cn1c2cc(/C=C/C=C(C#N)C#N)c3cccc4c5cccc6c(/C=C/C=C(C#N)C#N)cc1c(c65)c2c34 (stereo not given) , is the recorded emission maximum below the cut-off of 400 nm?
Result string: not met

Query string: And then `C[n+]1ccc(/C=C/c2cc[n+](C)cc2)cc1` , what is it?
Result string: met

Query string: And then `O=c1[nH]c2ccccc2[nH]1` , what is it?
Result string: met

Query string: And then `CCNc1cc2oc3c/c(=[NH+]\CC)c(C)cc-3c(-c3ccccc3C(=O)OCC)c2cc1C` , what is it?
Result string: not met

Query string: And then `CCc1c(C)c2n(c1C)[B-](F)(F)[N+]1=C(c3ccc[nH]3)c3ccccc3C1=C2` , what is it?
Result string: not met

Query string: And then `Cc1ccc(C)n1-c1ccc(N(C)C)cc1` , what is it?
Result string: met

Query string: And then `CCN(CC)c1ccc2cc(-c3nc4ccccc4n3C)c(=O)oc2c1` , what is it?
Result string: not met

Query string: And then O=P1(c2ccccc2)C(c2cc(C(F)(F)F)cc(C(F)(F)F)c2)=Cc2c3ccc4cccc5ccc(c6cc(-c7ccc(N(c8ccccc8)c8ccccc8)cc7)n1c26)c3c45 (stereo not given) , what is it?
Result string: not met

Query string: And then `c1ccc(-c2nc(-c3ccc(-c4nc(-c5ccccc5)c(-c5ccccc5)[nH]4)s3)[nH]c2-c2ccccc2)cc1` , what is it?
Result string: not met

Query string: And then `COC(=O)c1cc(=O)n(C)c2cc(-c3ccccc3OC)sc12` , what is it?
Result string: not met

Query string: And then `c1ccc(COc2cc(C[n+]3ccc(-c4cc[n+](Cc5cc(OCc6ccccc6)cc(OCc6ccccc6)c5)cc4)cc3)cc(OCc3ccccc3)c2)cc1` , what is it?
Result string: met

Query string: And then `CC1(C)CCc2c(c3ccccc3c3nc4c(nc23)c2c(c3ccccc34)OC(C)(C)CC2)O1` , what is it?
Result string: not met

Query string: And then `c1ccc(-c2oc(-c3ccccc3)c3ccccc23)cc1` , what is it?
Result string: not met

Query string: And then `CCCCCCCCCCCCOc1cc2cc(N(C)C)ccc2cc1C=C(C#N)C#N` , what is it?
Result string: not met
